src = PubChem BioAssay (NCI)

# Test system: NCI-H226 lung
# Run Description: NCI-60 one-dose screen, 48 h (100 = growth as untreated, 0 = no growth, -100 = all killed)
# Condition Context: 10 µM unless noted
The panel holds about 83,000 compounds, 20% with a hit somewhere; the sample as a whole holds those more often.
Grouping rule (growth): low band: < 20%; middle band: ≥ 20% and < 70%; high band: ≥ 70%

Some solved entries appear below for comparison.
CCCN(CCC)S(=O)(=O)c1ccc(C(=O)O)cc1.CCCN(CCC)S(=O)(=O)c1ccc(C(=O)O)cc1.[Cl][Pt+2][Cl].[NH2-].[NH2-]    middle band
CC[C@]12C=CCN3CC[C@@]4(c5ccc(OC)cc5N(C)[C@H]4[C@@](O)(C(=O)OC)[C@@H]1OC(=O)CCCC[P+](c1ccc(F)cc1)(c1ccc(F)cc1)c1ccc(F)cc1)[C@@H]32    middle band
FC(F)(F)c1cc2c(Cl)ncnc2n1CCN1CCCCC1    high band
CCN1C(=O)N(CC)C2NNC(Sc3c(C(=O)O)c4ccccc4n(CCC(C)C)c3=O)=NC21 (centres undefined)    middle band
Cc1cc(C(NC(=O)CCCCCNc2cccc3c2C(=O)N(C2CCC(=O)CC2=O)C3=O)c2cccc(N(C)C)c2)c(O)c2ncccc12 (centres undefined)    low band
Cn1cc(-c2cc(N)n3nc(-c4c[nH]c5ccccc45)cc3n2)c2ccccc21    low band
CCOc1ccc2[nH]c(=O)c(C(c3nnnn3CC3CCCO3)N3CCN(Cc4ccccc4)CC3)cc2c1 (centres undefined)    high band
Cc1cnc2ccc(Oc3ccccc3-c3ccccc3)nn12    high band

// next entry
Exercise: Which class is correct for the following molecule? CC1CCc2c(sc3nc(SCC(=O)c4cccc([N+](=O)[O-])c4)n(-c4ccccc4)c(=O)c23)C1 (centres undefined)
Key: middle band

* * *

# Test system: HS 578T breast
# Run Description: NCI-60 one-dose screen, 48 h (100 = growth as untreated, 0 = no growth, -100 = all killed)
# Condition Context: 10 µM unless noted
This is part of a sample that, as a whole, favours compounds with a hit. Of some 83,000 tested, about 20% had one in any assay.
Decision: growth compared against 30%; not below it gives 1, below it gives 0.

CCOc1ccc2[nH]c(=O)c(C(c3nnnn3CC3CCCO3)N3CCN(Cc4ccccc4)CC3)cc2c1 (stereo not drawn)    0

Exercise: Exam item: decide whether the reported growth for Cc1cc(C)c2[nH]c(=O)c(C(c3nnnn3Cc3ccc4c(c3)OCO4)N3CCN(C)CC3)cc2c1 (stereo not drawn) is at least 30%.
Key: 1

Exercise: // query: COc1ccc(-c2nc3ccccc3n2CC(=O)N=Nc2c(O)[nH]c3ccc(Br)cc23)cc1
Key: 1

Exercise: Try the compound O=C1/C(=C/c2cccc3c2OCO3)Cc2c(F)cc(Br)cc21
Key: 1

Exercise: Entry Cc1ccc(C2CC(c3ccc(NC(=S)Nc4ccccc4)cc3)=NN2c2ccc(S(N)(=O)=O)cc2)cc1 (stereo not drawn) please
Key: 1

Exercise: Same lookup for O=C(Cc1c(-c2ccccc2[N+](=O)[O-])n(-c2ncnc3c2c(-c2ccccc2)c(-c2ccccc2)n3Cc2ccccc2)[nH]c1=O)c1ccc(Cl)c(Cl)c1 , please.
Key: 0

Exercise: Follow-up item: Cc1ccc(N=Nc2c(N)nn3c(-c4cc5ccccc5oc4=O)ccnc23)cc1
Key: 1

Exercise: Next entry: COc1cc(C2C(C(=O)OCc3ccccc3)=C(C)Nc3nc4ccccc4n32)cc(OC)c1OC (stereo not drawn)
Key: 0
